Experiment: Confirmation Concentration-Response Assay for Inhibitors of the Schistosoma mansoni Redox Cascade
Conditions: S. mansoni TGR/Prx2 coupled, NADPH fluorescence kinetics
Active and inactive are the calls of the source. The call rests on the fitted dose curve.
Readout kind: Potency

Sample answers from the record:
| Compound | Result |
| --- | --- |
| CCOC(=O)C(C(=O)OCC)c1cc(Br)c2noc3c2c1C(=O)c1ccccc1-3 | inactive |
| COc1ccc(S(=O)(=O)N(Cc2cc3ccc(OC)cc3[nH]c2=O)C[C@H]2COCCO2)cc1 | 66.3 µM (active) |
| O=C(c1cccs1)c1no[n+]([O-])c1C(=O)c1cccs1 | 1.48 µM (active) |
| CCN1C(=O)c2cccc3cccc1c23 | inactive |

Would you mind telling me what Potency value was observed for CN1C(=O)c2cccc3cccc1c23 ?
inactive

Dear colleague, I am looking for the recorded Potency of the following compound: COc1ccc2cc(CN(C[C@H]3COCCO3)S(=O)(=O)c3ccc(Cl)cc3)c(=O)[nH]c2c1
inactive

Entry Cc1conc1C(=O)c1no[n+]([O-])c1C(=O)c1nocc1C : reported Potency = ?
inactive

Given Cc1ccc(S(=O)(=O)N(CCCN2CCCC2=O)Cc2cc3c(C)ccc(C)c3[nH]c2=O)cc1 , state its recorded Potency.
inactive

State the recorded Potency for this entry: COc1ccc(S(=O)(=O)N(CCCN2CCCC2=O)Cc2cc3c(C)ccc(C)c3[nH]c2=O)cc1
50.1 µM (active)
